Each entry below carries its reported TGI.
# System: MALME-3M melanoma
# METHOD_DESCRIPTION: NCI tumour cell line growth inhibition, 48 h

Here are 2 compounds together with their reported answers.
O=[N+]([O-])c1ccc(-n2nnc(C3=NCCN3)c2-c2ccccc2)cc1
> 100 µM
C/C(=N/NC(=S)N1CCCCC1)c1ccccc1O
> 31.6 µM

Now consider a different compound.
Request: Supply measured TGI of `NCCCC[C@@H]1NC(=O)[C@H]2CCCN2C(=O)[C@H](Cc2ccccc2)CNC(=O)[C@H](Cc2ccccc2)NC1=O` in your reply.
Result: > 37.5 µM

###

# Tested on: SW-620 colon
# METHOD_DESCRIPTION: NCI tumour cell line growth inhibition, 48 h
Each entry below carries its reported TGI.

Here are 5 compounds together with their reported answers.
O=S(Nc1ccccc1)c1ccc(N2CCOCC2)cc1 (stereo unspecified)
> 100 µM
CC(=C(c1ccccc1)c1ccccc1)N1C(=O)CC(=O)N1C
> 100 µM
C=C[C@@H](C)[C@H](NS(=O)(=O)c1ccc(C)cc1)C(=O)OCC
> 100 µM
c1cncc(C2N3CCCCC3[C@@H]3c4[nH]c5ccccc5c4CCN23)c1 (stereo partly specified)
> 100 µM
O=c1cnn(C2OC(CO)C(O)C2O)c(=S)[nH]1 (stereo unspecified)
> 74.6 µM

Request: Report its TGI with SW-620 colon as the test system: COc1ccc(CC(N)c2ccc(OC)cc2)cc1 (stereo unspecified)
Result: > 100 µM

Request: Report its TGI with SW-620 colon as the test system: `O=C1/C(=C/c2ccccc2)CN(C(=O)CCN2CCOCC2)C/C1=C\c1ccccc1`
Result: 1.55 µM

Request: Report its TGI with SW-620 colon as the test system: `C=C(C(N)=O)c1ccc([N+](=O)[O-])o1`
Result: 32.3 µM

Request: Report its TGI with SW-620 colon as the test system: `OCCO/N=C1\C(c2c(O)[nH]c3ccccc23)=Nc2ccccc21`
Result: > 100 µM

Request: Report its TGI with SW-620 colon as the test system: `Cc1cc([N+](=O)[O-])c(NS(=O)(=O)c2cccc(C(=O)O)c2)cc1-c1cccnc1`
Result: > 100 µM

Request: Report its TGI with SW-620 colon as the test system: CC(=O)OCC1OC(SC2=N/C(=C\c3ccc(Br)s3)C(=O)N2CN2CCOCC2)C(OC(C)=O)C(OC(C)=O)C1OC(C)=O (stereo unspecified)
Result: 38.9 µM
